- assayText: In vitro human skin permeation, flow-through diffusion cells
- conditionSummary: Table 17; 90:8:2 PG:H2O:IPM donor solution; analyte: THC or intact prodrug as applied

{"columns": ["compound", "unit", "24 h skin conc"],
 "data": [
  ["CCCCCc1cc(O)c2c(c1)OC(C)(C)[C@@H]1CCC(C)=C[C@@H]21 [Δ^9-tetrahydrocannabinol, reference compound]", "µmol/g", 6.1],
  ["CCCCCc1cc(OC(=O)OC[C@H](O)CO)c2c(c1)OC(C)(C)[C@@H]1CCC(C)=C[C@@H]21", "µmol/g", 17.8],
  ["CCCCCc1cc(OC(=O)COCCOCCOCCOC)c2c(c1)OC(C)(C)[C@@H]1CCC(C)=C[C@@H]21", "µmol/g", 7.3],
  ["CCCCCc1cc(OC(=O)CN(C)C)c2c(c1)OC(C)(C)[C@@H]1CCC(C)=C[C@@H]21", "µmol/g", 9.8]
]}

###

- assayText: In vitro human skin permeation, flow-through diffusion cells
- conditionSummary: Table 8; gel formulation; analyte: THC or intact prodrug as applied
valueKind: 24 h skin conc (µmol/g)

{"columns": ["compound", "unit", "reportedValue"],
 "data": [
  ["CCCCCc1cc(OC(=O)CN(C)C=O)c2c(c1)OC(C)(C)[C@@H]1CCC(C)=C[C@@H]21", "µmol/g", 33.2],
  ["CCCCCc1cc(OC(=O)CNC=O)c2c(c1)OC(C)(C)[C@@H]1CCC(C)=C[C@@H]21", "µmol/g", 44.8],
  ["CCCCCc1cc(O)c2c(c1)OC(C)(C)[C@@H]1CCC(C)=C[C@@H]21 [Δ^9-tetrahydrocannabinol, reference compound]", "µmol/g", 40.9],
  ["CCCCCc1cc(OC(=O)CCC(=O)O)c2c(c1)OC(C)(C)[C@@H]1CCC(C)=C[C@@H]21 [ALL00123, Δ^9-Tetrahydrocannabinol hemisuccinate]", "µmol/g", 110.4]
]}

###

- assayText: Plasma stability of prodrugs (bioconversion to parent drug)
- Type: in vitro ADME
- conditionSummary: Table 15, 0.1 h
- Experimental: Approximately 1 mg/mL of stock solution of each prodrug was prepared in 100 μL of ethanol and 900 μL of acetonitrile. Next, 10 μL of stock was spiked into 1 mL of plasma and vortexed. The samples were kept sealed in an amber vial and samples were obtained to analyze for bioconversion to parent drug. An approximated 1 mg/mL stock solution of each prodrug was prepared in 100 μL of ethanol and 900 μL of acetonitrile. Next, 10 μL of stock was spiked into 1 mL of plasma and vortexed. […]
Entries annotated with measured % Prodrug at time (h)
valueKind: % Prodrug at time (h) (%)

{"columns": ["smiles", "valueKind", "reportedValue"],
 "data": [
  ["CCCCCc1cc(OC(=O)OCCCCN)c2c(c1)OC(C)(C)[C@@H]1CCC(C)=C[C@@H]21", "% Prodrug at time (h)", 100],
  ["CCCCCc1cc(OC(=O)CN(C)C)c2c(c1)OC(C)(C)[C@@H]1CCC(C)=C[C@@H]21", "% Prodrug at time (h)", 100],
  ["CCCCCc1cc(OC(=O)C(C)(CO)CO)c2c(c1)OC(C)(C)[C@@H]1CCC(C)=C[C@@H]21", "% Prodrug at time (h)", 100],
  ["CCCCCc1cc(OC(=O)[C@@H](O)CO)c2c(c1)OC(C)(C)[C@@H]1CCC(C)=C[C@@H]21", "% Prodrug at time (h)", 96]
]}
